- Procedure summary: Cytotoxicity against African green monkey Vero cells assessed as growth inhibition by CellTiter 96 non-radioactive cell proliferation colorimetric assay
- Format: cell-based
- Conditions: chlorocebus sabaeus, Vero cells
Measurement name: CC50

1) Nc1ccn([C@@H]2CS[C@H](CO)O2)c(=O)n1 [LAMIVUDINE] ... > 100 µM

###

EC50 reference
- System: Hepatitis B virus
- Procedure summary: Antiviral activity against HBV infected in human HepAD38 cells assessed as inhibition of DNA replication after 5 days by RT-PCR method
- Assay type: functional, cell-based
- Conditions: HePAD38, 120 h
Measurement name: EC50

1. CC1=C(C(=O)SC(C)C)C(c2ccc(F)cc2Cl)N=C(c2ccccn2)N1 (stereo not drawn) ... > 10 µM
2. CC1(C)CC(=O)c2c(Cc3ccc(F)cc3Cl)nc(-c3cccnc3)nc2C1 ... > 10 µM
3. CC1(C)CC(=O)C2=C(C1)NC(c1cccnc1)=NC2c1ccc(F)cc1Cl (racemic) ... > 10 µM
4. COC(=O)c1c(C)nc(-c2ccccn2)nc1Cc1ccccc1 ... > 10 µM
5. COC(=O)c1c(CSc2ccccc2)nc(-c2ccccn2)nc1Cc1ccccc1 ... > 10 µM
6. CC1=C(C(=O)NS(=O)(=O)N(C)C)C(c2ccc(F)cc2Cl)N=C(c2ccccn2)N1 (stereo not drawn) ... > 10 µM
7. CCOC(=O)C1=C(CN2CCOCC2)NC(c2nccs2)=NC1c1ccc(F)cc1Br (racemic) ... 0.3 µM
8. CCCC[n+]1ccn(CC2=C(C(=O)OC)C(c3ccc(F)cc3Cl)N=C(c3ccccn3)N2)c1 (stereo not drawn) ... > 10 µM
9. COC(=O)c1c(Cc2ccccc2)nc(-c2ccccn2)nc1CN1CCOCC1 ... > 10 µM
10. COC(=O)C1=C(CSc2ccccc2)NC(c2ccccn2)=NC1Cc1ccccc1 (stereo not drawn) ... > 10 µM
11. CC1=C(I)C(c2ccc(F)cc2Cl)N=C(c2ccccn2)N1 (stereo not drawn) ... 4.1 µM
12. CC1(C)CC(=O)c2c(Cc3ccc(F)cc3Cl)nc(-c3ccccn3)nc2C1 ... > 10 µM
13. CC1(C)CC(=O)c2c(Cc3ccc(F)cc3Cl)nc(-c3ccncc3)nc2C1 ... > 10 µM

###

Here the recorded EC50 is given for each entry.
- System: Hepatitis B virus
- Procedure summary: Antiviral activity against HBV infected in human HepAD38 cells assessed as inhibition of DNA replication after 5 days by RT-PCR method
- Format: functional, cell-based
- Conditions: HePAD38, 120 h
Measurement name: EC50

1) COC(=O)C1=C(CN=[N+]=[N-])NC(c2ccccn2)=NC1c1ccc(F)cc1Cl (stereo unspecified) ... 5.3 µM
2) COC(=O)C1=C(CS(=O)(=O)Cc2ccc(C)cc2)NC(c2ccccn2)=NC1c1ccc(F)cc1Cl (stereo unspecified) ... > 10 µM
3) CC1(C)CC(=O)c2c(Cc3ccccc3)nc(-c3ccccn3)nc2C1 ... > 10 µM
4) Fc1ccc(C2N=C(c3ccccn3)NC(CN3CCOCC3)=C2I)c(Cl)c1 (stereo unspecified) ... 4 µM
5) CCOP(=O)(CC1=C(C(=O)OC)C(c2ccc(F)cc2Cl)N=C(c2ccccn2)N1)OCC (stereo unspecified) ... > 10 µM
6) COCCOCc1nc(-c2ccccn2)nc(Cc2ccccc2)c1C(=O)OC ... > 10 µM
7) COC(=O)C1=C(C)NC(c2ccccn2)=NC1Cc1ccccc1 (stereo unspecified) ... > 10 µM
8) Nc1ccn([C@@H]2CS[C@H](CO)O2)c(=O)n1 ... 0.04 µM
9) COC(=O)C1=C(Cn2cc[n+](C)c2)NC(c2ccccn2)=NC1c1ccc(F)cc1Cl (stereo unspecified) ... > 10 µM
10) CC(=O)NC1=C(C)NC(c2ccccn2)=NC1c1ccc(F)cc1Cl (stereo unspecified) ... > 10 µM
11) COC(=O)c1c(Cc2ccccc2)nc(-c2ccccn2)nc1CN1CCN(C)CC1 ... > 10 µM
12) CC(=O)NC1=C(CN2CCOCC2)NC(c2ccccn2)=NC1c1ccc(F)cc1Cl (stereo unspecified) ... > 10 µM
13) CCS(=O)(=O)CC1=C(C(=O)OC)C(c2ccc(F)cc2Cl)N=C(c2ccccn2)N1 (stereo unspecified) ... > 10 µM
14) CC1=C(Br)C(c2ccc(F)cc2Cl)N=C(c2ccccn2)N1 (stereo unspecified) ... 5.2 µM
15) COC(=O)C1=C(CN2CCN(C)CC2)NC(c2ccccn2)=NC1Cc1ccccc1 (stereo unspecified) ... > 10 µM
16) COC(=O)C1=C(CN2CCOCC2)NC(c2ccccn2)=NC1c1ccc(F)cc1Cl (racemic) ... 0.45 to 0.5 µM
17) CC1=C(Cl)C(c2ccc(F)cc2Cl)N=C(c2ccccn2)N1 (stereo unspecified) ... > 10 µM
18) COC(=O)c1c(Cc2ccc(F)cc2Cl)nc(-c2ccccn2)nc1CN1CCOCC1 ... > 10 µM
19) CC1=C(C(=O)OCC(F)(F)F)C(c2ccc(F)cc2Cl)N=C(c2ccccn2)N1 (stereo unspecified) ... > 10 µM
20) CC1=C(I)C(c2ccc(F)cc2Br)N=C(c2nccs2)N1 (stereo unspecified) ... 7.1 µM
21) Fc1ccc(C2N=C(c3nccs3)NC(CN3CCOCC3)=C2I)c(Br)c1 (stereo unspecified) ... 5.7 µM
